TARGET_SYSTEM: PLK4 (Homo sapiens)
Sequence (O00444 1-970): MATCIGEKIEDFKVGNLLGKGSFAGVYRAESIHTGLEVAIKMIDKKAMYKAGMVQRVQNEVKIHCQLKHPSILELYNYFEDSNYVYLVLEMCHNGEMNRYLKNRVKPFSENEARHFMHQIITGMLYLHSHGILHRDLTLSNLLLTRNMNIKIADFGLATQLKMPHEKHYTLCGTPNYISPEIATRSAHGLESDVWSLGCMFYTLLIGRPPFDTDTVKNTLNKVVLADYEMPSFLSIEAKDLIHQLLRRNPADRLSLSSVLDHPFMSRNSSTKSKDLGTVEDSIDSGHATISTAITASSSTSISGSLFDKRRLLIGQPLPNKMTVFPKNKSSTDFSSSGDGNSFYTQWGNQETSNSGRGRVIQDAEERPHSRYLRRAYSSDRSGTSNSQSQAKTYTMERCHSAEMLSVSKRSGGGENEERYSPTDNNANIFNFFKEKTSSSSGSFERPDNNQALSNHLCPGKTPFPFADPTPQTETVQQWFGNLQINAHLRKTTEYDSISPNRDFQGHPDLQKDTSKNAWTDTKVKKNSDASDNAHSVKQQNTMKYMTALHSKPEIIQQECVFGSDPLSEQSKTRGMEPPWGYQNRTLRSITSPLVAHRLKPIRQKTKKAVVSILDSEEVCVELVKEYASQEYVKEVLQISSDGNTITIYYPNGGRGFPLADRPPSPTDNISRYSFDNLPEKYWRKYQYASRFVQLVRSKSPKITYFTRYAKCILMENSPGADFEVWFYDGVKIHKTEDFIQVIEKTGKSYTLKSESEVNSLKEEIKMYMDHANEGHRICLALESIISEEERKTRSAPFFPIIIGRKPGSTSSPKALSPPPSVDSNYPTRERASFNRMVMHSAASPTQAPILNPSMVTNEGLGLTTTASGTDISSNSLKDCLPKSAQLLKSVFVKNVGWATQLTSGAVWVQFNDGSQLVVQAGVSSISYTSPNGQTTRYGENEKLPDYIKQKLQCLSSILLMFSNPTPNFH
ASSAY_METHOD_TEXT: PLK4 NanoBRET target engagement assay
STATED_CONDITIONS: HEK293 T cells transfected with PLK4 NanoLuc fusion vector; K-5 tracer; 2 hrs incubation
METRIC: IC50 (nM)

> print(dat)
                                    compound  unit.abbreviation  comparison.operator  numeric.result
 1  COc1c(Nc2cc(C)[nH]n2)nc(N(C)c2ccc(S(=O)(=O)C(C)(C)C)cc2)nc1-c1cnn(C)c1 [Compound 86]                 nM                    =             120
 2  Cc1cc(Nc2nc(N(C)c3c(F)cc(S(C)(=O)=O)cc3F)nc(-c3ncn(C)c3C(=O)N(C)C)c2C2CC2)n[nH]1 [Compound 274]                 nM                    =            3100
 3  Cc1cc(Nc2nc(N(C)c3c(F)cc([N+](=O)[O-])cc3F)nc(-c3cn(C)cn3)c2C2CC2)n[nH]1 [Compound 360]                 nM                    =              10
 4  CNC(=O)CN(c1nc(Nc2cc(C)[nH]n2)c(OC)c(-c2cnn(C)c2)n1)c1ccc(S(C)(=O)=O)cc1F [Compound 85]                 nM                    =            9200
 5  [2H]C([2H])([2H])OCc1nc(-c2nc(N(C)c3c(F)cc(S(C)(=O)=O)cc3F)nc(Nc3cc(C)[nH]n3)c2C2CC2)cn1C [Compound 237]                 nM                    =               5
 6  Cc1cc(Nc2nc(N(C)c3c(F)cc(S(C)(=O)=O)cc3F)nc(-c3cnn(CC(C)(C)O)c3)c2C2CC2)n[nH]1 [Compound 213]                 nM                    =               6
 7  COc1c(Nc2cc(C)[nH]n2)nc(-n2ccc3cc(S(C)(=O)=O)ccc32)nc1-c1cnn(C)c1 [Compound 89]                 nM                    =            1700
 8  Cc1cc(Nc2nc(N(C)c3c(F)cc(S(C)(=O)=O)cc3F)nc(Nc3cnccn3)c2C2CC2)n[nH]1 [Compound 328]                 nM                    =              51
 9  COc1c(Nc2cc(C)[nH]n2)nc(Sc2ccc(S(C)(=O)=O)cc2F)c(N(C)C)c1-c1cnn(C)c1 [Compound 97]                 nM                    =            1200
10  Cc1cc(Nc2nc(N(C)c3c(F)cc(S(C)(=O)=O)cc3F)nc(-c3cn(C)c(CO)n3)c2C2CC2)n[nH]1 [Compound 167]                 nM                    =              30
11  COCCN(c1nc(Nc2cc(C)[nH]n2)c(OC)c(-c2cnn(C)c2)n1)c1ccc(S(C)(=O)=O)cc1F [Compound 88]                 nM                    =             290
12  Cc1cc(Nc2nc(N(C)c3c(F)cc(CC(=O)N(C)C)cc3F)nc(-c3cn(C)cn3)c2C2CC2)n[nH]1 [Compound 361]                 nM                    >            5000
13  COc1c(Nc2cc(C)[nH]n2)nc(N(C)c2cc3c(cc2F)OCO3)nc1-c1cnn(C)c1 [Compound 65]                 nM                    =             820
14  Cc1cc(Nc2nc(N(C)c3c(F)cc(S(C)(=O)=O)cc3F)nc(-c3cn(C)nc3C#N)c2C2CC2)n[nH]1 [Compound 115]                 nM                    =              22
